Recorded cell number values for a group of compounds are listed next.
# Tested on: HCC1569
# Assay Notes: cell number relative to DMSO (% of DMSO); higher = more cells (less growth inhibition / toxicity)
# Details: concentration: 10 µM; 24 h
Just the number, please, no unit after it.

Query :: cell number lookup needed for CC(C)(C)NCC(O)COc1cccc2[nH]c(=O)[nH]c12.Cl (racemic) , thanks.
Result :: 97.7

Query :: cell number lookup needed for NC(=O)c1cccc(N)c1 [3-aminobenzamide] , thanks.
Result :: 98.6

---

# System: HCC1569
# Assay Notes: H1.0 immunofluorescence intensity relative to DMSO (% of DMSO); higher = stronger H1.0 induction, active = 140 or more
# Details: concentration: 10 µM; 24 h
Recorded H1.0 immunofluorescence intensity values for a group of compounds are listed next.
Just the number, please, no unit after it.

# count of solved cases: 7
> print(dat)
                                   compound  value.observed
1       CCCCCCCCCCCC(=O)O [Dodecanoic acid]             101
2  CCCCCC(O)C=CC1C(O)CC(O)C1CC(=O)CCC(=O)O (stereo not drawn) [2,3-Dinor-6-keto-prostaglandin F1a]             101
3  OCC1OC(n2cnc3c(NCCc4ccccc4)ncnc32)C(O)C1O (stereo not drawn) [N6-2-Phenylethyladenosine]             101
4  CC1=C2C(=COC(C)C2C)C(=O)C(C(=O)O)=C1O (stereo not drawn) [Citrinin]            97.8
5  COc1ccc(S(=O)(=O)N2CCC[C@H]2C(=O)Nc2cc(C)cc(C)c2)cc1             102
6    O=C(Nc1ccccc1)c1cc([N+](=O)[O-])ccc1Cl            97.9
7  CC(C)C(CO)Nc1nc(Nc2ccc(C(=O)O)c(Cl)c2)c2ncn(C(C)C)c2n1 (stereo not drawn) [Purvalanol B]            98.7

Could you now look at the following compound, please?
Query :: H1.0 immunofluorescence intensity lookup needed for C=C(C)C1CC=C(C(=O)O)CC1 (single isomer, unassigned; (-)) [(-)-Perillic acid] , thanks.
Result :: 99.9
